# credit: patent US10703756B2

systemUnderTest: JAK3 enzyme (Homo sapiens)
Sequence (P52333 whole entry, species assumed): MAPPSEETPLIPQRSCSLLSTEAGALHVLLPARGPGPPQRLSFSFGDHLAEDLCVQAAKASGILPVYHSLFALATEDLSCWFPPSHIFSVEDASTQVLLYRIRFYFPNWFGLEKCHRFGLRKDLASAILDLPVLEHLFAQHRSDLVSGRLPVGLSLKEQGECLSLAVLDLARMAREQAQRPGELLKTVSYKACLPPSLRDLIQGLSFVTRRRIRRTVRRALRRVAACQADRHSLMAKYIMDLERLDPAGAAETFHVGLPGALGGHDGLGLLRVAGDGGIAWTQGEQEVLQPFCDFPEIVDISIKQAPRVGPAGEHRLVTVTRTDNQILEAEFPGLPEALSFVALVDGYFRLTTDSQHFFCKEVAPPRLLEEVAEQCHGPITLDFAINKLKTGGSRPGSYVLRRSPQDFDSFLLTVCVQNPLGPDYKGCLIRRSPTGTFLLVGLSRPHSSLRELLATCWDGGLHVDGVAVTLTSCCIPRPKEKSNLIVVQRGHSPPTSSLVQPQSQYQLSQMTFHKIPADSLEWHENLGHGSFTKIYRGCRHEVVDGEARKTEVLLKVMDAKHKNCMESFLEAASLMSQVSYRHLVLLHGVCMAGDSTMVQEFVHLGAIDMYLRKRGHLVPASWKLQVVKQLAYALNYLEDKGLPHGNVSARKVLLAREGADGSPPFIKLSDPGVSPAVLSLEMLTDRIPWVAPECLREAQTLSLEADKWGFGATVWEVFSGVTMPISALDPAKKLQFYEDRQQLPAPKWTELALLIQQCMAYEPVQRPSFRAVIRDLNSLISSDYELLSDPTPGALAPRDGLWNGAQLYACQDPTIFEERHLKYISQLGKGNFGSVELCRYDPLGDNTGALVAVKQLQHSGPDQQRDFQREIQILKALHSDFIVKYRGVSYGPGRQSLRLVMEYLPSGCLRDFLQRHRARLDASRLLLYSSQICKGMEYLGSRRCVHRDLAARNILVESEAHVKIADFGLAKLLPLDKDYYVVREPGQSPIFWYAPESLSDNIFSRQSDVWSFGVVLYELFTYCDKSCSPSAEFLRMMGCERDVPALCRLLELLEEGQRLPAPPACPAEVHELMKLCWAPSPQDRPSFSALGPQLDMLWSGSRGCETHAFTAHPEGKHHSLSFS
methodDescription: JAK Caliper Enzyme Assay at 1 mM ATP
Type: biochemical
Description: Test article was solubilized in dimethyl sulfoxide (DMSO) to a stock concentration of 30 mM. An 11-point half log dilution series was created in DMSO with a top concentration of 600 μM. […] Test article and assay controls were added to a 384-well plate. […] Enzyme concentrations and incubation times were optimized for each new enzyme preps and were modified slightly over time to ensure 20%-30% phosphorylation. […]
pIC50: −log10 of the molar value.
propertyMeasured: pIC50

C=CC(=O)N1C[C@H](Nc2cnc3[nH]cc(C(=O)NCC)c3n2)C[C@@H]1COC = 5.66
C=CC(=O)N1C[C@H](CN2CC[C@H](C#N)C2)C[C@H](Nc2ncnc3[nH]ccc23)C1 = 6.87
C=CC(=O)N1CC[C@@H](Nc2cnc3[nH]cc(C(=O)NCC)c3n2)[C@H](C)C1 (racemic) [Example 43] = 7.30
C=CC(=O)N1CCC(Oc2cnc3[nH]cc(C(=O)NC4CCCC(F)(F)C4)c3c2)CC1 (stereo not drawn) = 5.57
C=CC(=O)N1CC[C@H](Nc2cnc3[nH]cc(C(=O)NCC)c3n2)C[C@H]1C (single isomer, unassigned) [Example 41] = 7.66

1 = C=CC(=O)N1CC[C@H](Nc2cnc3[nH]cc(C(=O)N[C@@H]4C[C@H]4C(F)(F)F)c3n2)[C@H](OC)C1
2 = C=CC(=O)N1CCN(c2cnc3[nH]cc(C(=O)NCCC(F)(F)F)c3n2)C[C@@H]1CC(C)C
3 = C=CC(=O)N1C[C@@H](C)[C@@H](Nc2cnc3[nH]cc(C(=O)NCCOC)c3n2)C1 (stereo in doubt)
4 = C=CC(=O)N1C[C@H](C2CC2)[C@H](Nc2cnc3[nH]cc(C(=O)NCC)c3n2)C1
5 = C=CC(=O)N1C[C@H](C)[C@H](Nc2cnc3[nH]cc(C(=O)NCC)c3n2)C1 (stereo in doubt)
input: Sort the 5 compounds by pIC50; largest first, smallest last. Record the ranking as a list of labels in the requested order.
output: 2, 1, 5, 4, 3
(2: 7.22, 1: 6.84, 5: 6.17, 4: 5.87, 3: 5.11)

I = C=CC(=O)N1CC[C@@H](Oc2cnc3[nH]cc(C(=O)NCC)c3n2)[C@H](C)C1 (single isomer, unassigned) [Example 47]
II = C=CC(=O)N1C[C@@H](CC#N)C[C@@H](Nc2ncnc3[nH]ccc23)C1 (racemic) [Example 105]
input: Determine, for I and II , which has the greater value of pIC50. Your answer should be the label attached to the chosen record.
output: II
